study.system: T1, human CXCR4-enriched lipoparticles (LEV101, Integral Molecular) (human, UniProt P61073 1-352)
T1 construct: Bought reagent; CXCR4 held in lipoparticles captured by biotinylated WGA on an SA chip; also called Lipoparticles containing CXCR4 proteins
T1 sequence (P61073 whole entry): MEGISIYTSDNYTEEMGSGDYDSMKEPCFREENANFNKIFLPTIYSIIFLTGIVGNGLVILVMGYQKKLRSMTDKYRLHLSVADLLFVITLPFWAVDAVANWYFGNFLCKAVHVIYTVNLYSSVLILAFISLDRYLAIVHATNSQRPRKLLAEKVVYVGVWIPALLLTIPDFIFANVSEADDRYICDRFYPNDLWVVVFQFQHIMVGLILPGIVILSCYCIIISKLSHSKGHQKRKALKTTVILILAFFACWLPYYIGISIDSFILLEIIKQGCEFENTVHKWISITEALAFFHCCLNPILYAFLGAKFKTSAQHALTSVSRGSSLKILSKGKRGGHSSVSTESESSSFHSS
protocol.details: biosensor kinetic titration, Fab over captured human CXCR4 lipoparticles
property: t½
Reply with a number, then the unit it belongs to.

h3G10.2.37 VH / h3G10.A58A VL Fab (Fab, V domains shown, Tested as Fab) VH: EVQLVESGGGLVQPGGSLRLSCAASGFTFSDYYMSWVRQAPGKGLEWVGFIRHKANFYTREYSTSVKGRFTISRDDSKNSLYLQMNSLKTEDTAVYYCARDLPGFAYWGQGTLVTVSS VL: DIVMTQSPDSLAVSLGERATINCKSSQSLFNSHTRKNYLAWYQQKPGQPPKLLIYWASARGSGVPDRFSGSGSGTDFTLTISSLQAEDVAVYYCKQSFRLRTFGGGTKVEIK	27.6 min
h3G10.A57 VH / h3G10 VL Fab (Fab, V domains shown, Tested as Fab; also called h3G10.A57 VH / h3G10 L) VH: EVQLVESGGGLVQPGGSLRLSCAASGFTFSDYYMSWVRQAPGKGLEWVGFIRHKANFYTTEYSTSVKGRFTISRDDSKNSLYLQMNSLKTEDTAVYYCARDLPGFAYWGQGTLVTVSS VL: DIVMTQSPDSLAVSLGERATINCKSSQSLFNSRTRKNYLAWYQQKPGQPPKLLIYWASARESGVPDRFSGSGSGTDFTLTISSLQAEDVAVYYCKQSFNLRTFGGGTKVEIK	8.08 min
h3G10.A57 VH / h3G10.A58A VL Fab (Fab, V domains shown, Tested as Fab) VH: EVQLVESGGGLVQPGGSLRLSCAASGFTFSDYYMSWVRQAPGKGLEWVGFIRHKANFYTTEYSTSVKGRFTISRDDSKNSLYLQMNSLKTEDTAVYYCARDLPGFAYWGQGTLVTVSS VL: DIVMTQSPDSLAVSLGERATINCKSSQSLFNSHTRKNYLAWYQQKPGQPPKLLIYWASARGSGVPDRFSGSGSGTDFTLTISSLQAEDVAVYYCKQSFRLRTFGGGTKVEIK	18.2 min

Lookup: Item h3G10.1.91 VH / h3G10.A58A VL Fab (Fab, V domains shown, Tested as Fab) VH: EVQLVESGGGLVQPGGSLRLSCAASGFTFSDYYMSWVRQAPGKGLEWVGFIRHKANFETTEYSTSVKGRFTISRDDSKNSLYLQMNSLKTEDTAVYYCARDLPGFAYWGQGTLVTVSS VL: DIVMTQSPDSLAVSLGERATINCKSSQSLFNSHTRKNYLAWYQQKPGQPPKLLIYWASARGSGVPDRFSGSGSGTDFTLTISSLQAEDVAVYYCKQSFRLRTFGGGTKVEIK has what recorded t½?
Found: 33.9 min

Lookup: Item h3G10.1.91 VH / h3G10.A58B VL Fab (Fab, V domains shown, Tested as Fab) VH: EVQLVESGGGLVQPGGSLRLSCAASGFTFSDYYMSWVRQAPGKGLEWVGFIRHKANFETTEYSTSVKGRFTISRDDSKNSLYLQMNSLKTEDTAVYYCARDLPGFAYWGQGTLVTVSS VL: DIVMTQSPDSLAVSLGERATINCKSSQSLFNSHTRKNYLAWYQQKPGQPPKLLIYWASARGSGVPDRFSGSGSGTDFTLTISSLQAEDVAVYYCKQSFNLRTFGGGTKVEIK has what recorded t½?
Found: 40.4 min

Where do these numbers come from? They come from patent US20150037328A1.
